- Test system: ACHN renal
- experiment.summary: NCI-60 one-dose screen, 48 h (100 = growth as untreated, 0 = no growth, -100 = all killed)
- study.conditions: 10 µM unless noted
Compounds without any hit were thinned out: in the full panel of roughly 83,000, 20% have a hit.
Would you mind telling me the reported growth of each entry?
Answers are plain numbers, in %.

[
  {
    "molecule": "COc1ccc(-c2cc(C)nc3[nH]c(=O)sc23)cc1",
    "target.system": "ACHN renal",
    "growth (%)": 31.9
  },
  {
    "molecule": "COc1cc(/C=C/C(=O)c2cnn(-c3cc(=O)[nH]c4ccc(Cl)cc34)c2C)cc(OC)c1OC",
    "target.system": "ACHN renal",
    "growth (%)": -35.4
  },
  {
    "molecule": "Nc1cc(-c2c[nH]c3ccc(F)cc23)nc2cc(-c3c[nH]c4ccccc34)nn12",
    "target.system": "ACHN renal",
    "growth (%)": 6.95
  },
  {
    "molecule": "CC[C@]12C=CCN3CC[C@]4(C(=C(C(=O)OC)C1)Nc1cc(OC)c([C@@H]5[C@H]6O[C@H]6[C@@]6(CC)CC(C(=O)OC)=C7Nc8cc(O)ccc8[C@@]78CCN5[C@@H]68)cc14)[C@@H]32",
    "target.system": "ACHN renal",
    "growth (%)": 1.9
  },
  {
    "molecule": "CN(C)CCCc1ccc(Nc2cnn(C)c(=O)c2Cl)cc1",
    "target.system": "ACHN renal",
    "growth (%)": 113
  },
  {
    "molecule": "CC1CCc2c(sc3nc(SCC(=O)c4cccc([N+](=O)[O-])c4)n(-c4ccccc4)c(=O)c23)C1 (stereo not drawn)",
    "target.system": "ACHN renal",
    "growth (%)": 31.3
  },
  {
    "molecule": "COc1ccc(Nc2ncnc3sc4c(c23)CCN(Cc2ccccc2)C4)cc1",
    "target.system": "ACHN renal",
    "growth (%)": 77
  },
  {
    "molecule": "FC(F)(F)c1cc2c(Cl)ncnc2n1CCC1CCOCC1",
    "target.system": "ACHN renal",
    "growth (%)": -44.2
  },
  {
    "molecule": "COc1ccc(NC(=O)Nc2nc3ccc([N+](=O)[O-])cc3s2)cc1",
    "target.system": "ACHN renal",
    "growth (%)": 10.8
  },
  {
    "molecule": "C=CC[n+]1cccc2c3ccccc3ccc21",
    "target.system": "ACHN renal",
    "growth (%)": 88
  }
]

Go through the list and state growth for each entry.
1. O=C(c1ccc(Cl)cc1)C1[C@H](c2ccccc2Cl)[C@@H](c2ccccc2)NC12C(=O)Nc1ccccc12 (stereo partly drawn)
2. COc1ccc(-c2nc3ccc(-c4nnc(SCc5ccccc5)o4)cc3[nH]2)cc1
3. CCCCCCCCc1ccc(C(=O)Nc2ccc(C)cc2C(=O)O)cc1

[1.1, -85.2, 69.4]

---

- Test system: HCC-2998 colon
- experiment.summary: NCI-60 one-dose screen, 48 h (100 = growth as untreated, 0 = no growth, -100 = all killed)
- study.conditions: 10 µM unless noted
This is part of a sample that, as a whole, favours compounds with a hit. Of some 83,000 tested, about 20% had one in any assay.
assay.readout: growth (%)
One number for each entry, in %.

I'm hoping you can list growth for every compound here, please.
1. Cc1ccc2c(c1)/C(=C/C(=O)c1cc3ccccc3oc1=O)C(=O)N2
2. COc1ccc2[nH]cc(-c3cc4nc(-c5cn(C)c6ncc(Br)cc56)cc(N)n4n3)c2c1
3. COc1ccc(-c2cc(C)nc3[nH]c(=O)sc23)cc1
4. COc1c2c(cc3c1C(CCc1ccccc1)N(C)CC3)OCO2 (stereo not drawn)

1. 106
2. -95
3. 84.2
4. -31.5

Please state, for each entry, its recorded growth.
1. O=C(Nc1nc2ccc([N+](=O)[O-])cc2s1)Nc1ccccc1F
2. O=C(CSc1nc2ccccc2c(=O)[nH]1)Nc1ccccc1C(=O)O
3. O=C(Cn1c(/C=C/c2ccc([N+](=O)[O-])cc2)nc2ccccc2c1=O)Nc1ccccc1
4. Cc1cnc2ccc(Oc3ccccc3-c3ccccc3)nn12
5. COc1cc(CNC(=O)[C@]23CCC(C)(C)CC2C2=CCC4[C@@]5(C)CCC(OC(C)=O)C(C)(C)C5CC[C@@]4(C)[C@]2(C)CC3)ccc1OCc1cn(-c2ccc(Cl)cc2Cl)nn1 (stereo partly drawn)
6. Nc1cc(-c2c[nH]c3ccc(Br)cc23)nc2cc(-c3c[nH]c4ccccc34)nn12
7. CC(=O)C[n+]1cccc2c3ccccc3ccc21
8. COC(=O)c1cc(C(=O)C(Br)Br)n2c1ccc1c3ccccc3ccc12

[23.8, 125, 79.8, 113, 122, -78.2, 114, 43.5]

If you can, please state the reported growth value of Cc1ccc(C(=O)Nc2ccc(-n3ccnc3)c(C(F)(F)F)c2)cc1C#Cc1cnc2cccnn12 .
29.9

---

- Test system: HCC-2998 colon
- experiment.summary: NCI-60 one-dose screen, 48 h
- study.conditions: 10 µM unless noted
This is part of a sample that, as a whole, favours compounds with a hit. Of some 83,000 tested, about 20% had one in any assay. Active and inactive are the calls of the source. Rule for the calls: active = growth percent below 10; inactive = the rest.
One label from this list, please: active, inactive

[
  {
    "compound": "N/C(=N\\c1nc2ccccc2s1)NC(=O)Nc1ccccc1F",
    "cat": "inactive"
  },
  {
    "compound": "Cc1ccc2c(c1)nc(-c1ccccc1)n2CC(=O)N=Nc1c(O)[nH]c2ccc(Cl)cc12",
    "cat": "active"
  },
  {
    "compound": "CN1C(=O)C2(C(C#N)=C(c3ccc(Cl)cc3)Nc3c2c(-c2ccccc2)nn3-c2ccccc2)c2ccccc21 (configuration not stated)",
    "cat": "inactive"
  },
  {
    "compound": "O=C(COc1ccc(/C=C2/C(=O)Nc3ccc(Cl)cc32)cc1)Nc1ccc(Br)cc1",
    "cat": "inactive"
  },
  {
    "compound": "C/C(=N/O)c1ccc(NC(=O)CSc2nnc(-c3ccc4nc(-c5ccc(Cl)cc5)[nH]c4c3)o2)cc1",
    "cat": "inactive"
  },
  {
    "compound": "COc1ccc(/C=C/C(=O)c2ccc(OC)c(S(N)(=O)=O)c2)c(C(F)(F)F)c1",
    "cat": "active"
  }
]

What is the recorded call for this compound in the test? Nc1cc(-c2c[nH]c3ccc(F)cc23)nc2cc(-c3c[nH]c4ccccc34)nn12
active

Would you kindly repeat that for O=C(/C=C1\C(=O)N(Cc2ccccc2)c2ccccc21)c1cc2ccccc2oc1=O ?
inactive

Let us now turn to COc1ccc2[nH]c(=O)c(CSc3ccccc3Nc3nccc(-c4ccc(C(F)(F)F)cc4)n3)cc2c1
inactive

Moving on to the next compound: O=C1CCC(N2C(=O)c3cccc(NCCCCCC(=O)N4CCN(c5ccc6nc7c(nc6c5C(F)(F)F)C(=O)c5ncccc5C7=O)CC4)c3C2=O)C(=O)N1 (configuration not stated)
active

---

- Tested on: CAKI-1 renal
- experiment.summary: NCI-60 one-dose screen, 48 h
- study.conditions: 10 µM unless noted
- Method: Growth inhibition of the CAKI-1 human tumor cell line is measured as a screen for anti-cancer activity. Cells are grown in 96 well plates and exposed to the test compound for 48 hours. Compounds are tested at a single concentration, which is 10^-5 M for most compounds. The reported endpoint is percent growth (GI% or GIPRCNT), where numbers from 0 - 100% represent growth inhibition, and numbers from -100% - 0 represent cell death. For example, a value of 40 represents 60% growth inhibition. […]
This is part of a sample that, as a whole, favours compounds with a hit. Of some 83,000 tested, about 20% had one in any assay. Activity calls are given as the source filed them. How the source made its calls: active means growth percent below 10; inactive means the rest.
Respond only with the outcome that fits, drawn from active, inactive

These recorded examples may help you get a feel for the data.
[
  {
    "molecule": "COc1cccc(/C=C/c2nc3ccccc3c(=O)n2CC(=O)Nc2ccccc2)c1",
    "cat": "inactive"
  },
  {
    "molecule": "O=C(c1ccc(Cl)cc1)C1[C@H](c2ccccc2Cl)[C@@H](c2ccccc2)NC12C(=O)Nc1ccccc12 (some centres not stated)",
    "cat": "active"
  },
  {
    "molecule": "Nc1nnc(CS(=O)(=O)c2ccccc2)s1",
    "cat": "inactive"
  },
  {
    "molecule": "Cc1ccc2c(c1)nc(-c1ccccc1)n2CC(=O)N=Nc1c(O)[nH]c2ccc(Cl)cc12",
    "cat": "active"
  },
  {
    "molecule": "CC1=C(C(=O)Nc2ccccc2)C(c2cccc3ccccc23)n2c(nc3ccccc32)N1 (configuration not stated)",
    "cat": "active"
  }
]

What did this assay record as the result for C=CC[n+]1cccc2c3ccccc3ccc21 ?
inactive

Now give it for COC(=O)c1c(C(=O)OC)c2c3ccccc3c3ccccc3n2c1C(=O)C(C)(C)C too.
inactive

Same question for CCCCCCCCc1ccc(C(=O)Nc2ccc(C)cc2C(=O)O)cc1 please.
inactive

Note, next up: O=C1CCC(N2C(=O)c3cccc(NCCCCCC(=O)N4CCN(c5ccc6nc7c(nc6c5C(F)(F)F)C(=O)c5ncccc5C7=O)CC4)c3C2=O)C(=O)N1 (configuration not stated)
active

Do the same for COc1cc(/C=C/C(=O)c2cnn(-c3cc(=O)[nH]c4ccc(Br)cc34)c2C)cc(OC)c1OC please
active

Please give the result for COc1ccc(/C=C/c2nc3ccccc3c(=O)n2CC(=O)Nc2ccccc2)cc1 too.
inactive

Also check CCN1C(=O)N(CC)C2NNC(Sc3c(C(=O)O)c4ccccc4n(CC(C)C)c3=O)=NC21 (configuration not stated)
inactive
